target: EGFR (UniProt P00533)
Sequence (P00533 whole entry, looked up): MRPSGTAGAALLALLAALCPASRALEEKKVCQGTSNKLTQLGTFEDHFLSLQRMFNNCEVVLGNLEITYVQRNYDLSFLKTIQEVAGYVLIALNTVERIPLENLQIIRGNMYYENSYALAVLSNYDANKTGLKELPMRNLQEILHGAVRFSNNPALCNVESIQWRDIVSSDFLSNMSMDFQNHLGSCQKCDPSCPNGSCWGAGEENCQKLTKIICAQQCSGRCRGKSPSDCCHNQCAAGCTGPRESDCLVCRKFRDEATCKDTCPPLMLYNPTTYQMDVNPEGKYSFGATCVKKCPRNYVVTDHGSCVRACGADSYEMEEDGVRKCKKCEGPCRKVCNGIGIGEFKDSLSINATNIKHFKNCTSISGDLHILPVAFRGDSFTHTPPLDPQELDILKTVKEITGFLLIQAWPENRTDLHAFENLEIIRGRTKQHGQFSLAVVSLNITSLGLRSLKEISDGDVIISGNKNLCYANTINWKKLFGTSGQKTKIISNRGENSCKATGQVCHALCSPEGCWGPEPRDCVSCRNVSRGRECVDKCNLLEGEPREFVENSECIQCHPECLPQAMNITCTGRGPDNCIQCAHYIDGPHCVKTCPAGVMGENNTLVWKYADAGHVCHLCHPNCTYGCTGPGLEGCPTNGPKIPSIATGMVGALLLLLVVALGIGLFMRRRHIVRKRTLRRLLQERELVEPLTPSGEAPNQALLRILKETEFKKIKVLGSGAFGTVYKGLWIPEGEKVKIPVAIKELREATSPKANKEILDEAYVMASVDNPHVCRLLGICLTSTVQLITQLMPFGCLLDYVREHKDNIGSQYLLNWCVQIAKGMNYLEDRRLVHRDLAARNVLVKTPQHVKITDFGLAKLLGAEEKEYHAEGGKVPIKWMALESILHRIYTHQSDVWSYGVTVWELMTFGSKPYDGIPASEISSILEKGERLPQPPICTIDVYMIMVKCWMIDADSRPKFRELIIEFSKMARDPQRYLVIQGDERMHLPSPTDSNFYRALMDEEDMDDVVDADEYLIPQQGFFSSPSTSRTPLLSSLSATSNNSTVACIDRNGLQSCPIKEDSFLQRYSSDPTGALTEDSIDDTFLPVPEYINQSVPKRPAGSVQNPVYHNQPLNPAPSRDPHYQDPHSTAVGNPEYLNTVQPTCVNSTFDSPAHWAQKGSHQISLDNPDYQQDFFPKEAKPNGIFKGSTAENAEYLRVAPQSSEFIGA
measure name: inhibition

Consider the reported inhibition for these compounds:
| compound string | measure name | measured |
| --- | --- | --- |
| NCCC(=O)N[C@@H](Cc1cc(O)c(O)c(SC[C@H](NC(=O)CC[C@H](N)C(=O)O)C(=O)NCC(=O)O)c1)C(=O)O | inhibition | 2.2 |
| NCCc1cc(O)c(O)c(SC[C@H](NC(=O)CC[C@H](N)C(=O)O)C(=O)NCC(=O)O)c1 | inhibition | 1 |

I = N[C@@H](CCC(=O)N[C@@H](CSc1cc(C[C@H](N)C(=O)O)cc(O)c1O)C(=O)NCC(=O)O)C(=O)O
II = N[C@H](Cc1cc(O)c(O)c(SC[C@H](N)C(=O)O)c1)C(=O)O
Would you mind telling me which has the lower recorded inhibition between I and II ? Please reply using the label of the selected record.
II
(II: 0, I: 4.4)

P = NCCC(=O)N[C@H](Cc1cc(O)c(O)c(SC[C@H](NC(=O)CC[C@H](N)C(=O)O)C(=O)NCC(=O)O)c1)C(=O)O
Q = NCCC(=O)NCCc1cc(O)c(O)c(SC[C@H](NC(=O)CC[C@H](N)C(=O)O)C(=O)NCC(=O)O)c1
R = N[C@@H](CSc1cc(C[C@H](N)C(=O)O)cc(O)c1O)C(=O)O
// ascending sort on recorded inhibition Form field (ranking): labels in requested order.
R, Q, P

P = C[C@@](Cc1cc(O)c(O)c(SC[C@H](NC(=O)CC[C@H](N)C(=O)O)C(=O)NCC(=O)O)c1)(NC(=O)CCN)C(=O)O
Q = N[C@H](Cc1cc(O)c(O)c(SC[C@H](NC(=O)CC[C@H](N)C(=O)O)C(=O)NCC(=O)O)c1)C(=O)O
Given P and Q , report the one with the higher recorded inhibition. Please reply using the label of the selected record.
P
